biological target: T1, canine antithrombin (canine); test: ELISA, sdAb coated, plasma 1/4, bound antithrombin probed with polyclonal anti-antithrombin; grade by OD
T1 construct: Native protein in plasma diluted 1/4; also called canine AT; antithrombin in canine plasma
endpoint: OD

Solved cases (2 shown):
{"columns": ["binder", "OD"],
 "data": [
  ["KB-AT-006 (VHH, Monovalent anti-antithrombin single-domain antibody; also called sdAb KB-AT-006) VHH: QVQLQQSGGGLVQAGGSLRLSCAASGRTFSNNGMGWFRQAPGKEREFVAAISWSSGSTYYADSVKGRYTISRDNAKNTVYLQMNSLKPEDTAVYYCAARTRYNSGYFTRNYDYWGQGTQVTVSS", "0.1 to 0.5 od"],
  ["KB-AT-003 (VHH, Monovalent anti-antithrombin single-domain antibody; also called sdAb KB-AT-003) VHH: QVQLVQSGGGLVQPGGSLRLSCAASALTFSSRAWAWYRQAPGKQRELVASITGGGTTNYADSVKGRFTISRDNAKNTVYLQMNSLKPEDTAVHYCNGYRYTYAWGQGTQVTVSS", "0.1 to 0.5 od"]
]}

(Q) Consider the binder KB-AT-002 (VHH, Monovalent anti-antithrombin single-domain antibody; also called sdAb KB-AT-002) VHH: QVQLVQSGGGLVQAGGSLRLSCAASGRTFNNNGMGWFRQAPGKEREFVAAISWSGGSTYYADSVKGRYIMSRDNAKNTVYLQMNSLKPEDTAVYYCAARTRYNSGLFSRNYDYWGQGTQVTVSS and give its measured OD.
(A) ≥ 0.5 od

(Q) So what's the measured OD for this one? KB-AT-004 (VHH, Monovalent anti-antithrombin single-domain antibody; also called sdAb KB-AT-004) VHH: VQLQQSGGGLVQPGGSLRLSCAASAMTFSIRAWAWYRQAPGKQRELVASIGTGDITNYADSVKGRFTISRDNAKNTFYLQMNSLKPEDTAVYYCNGYRSTYAWGQGTQVTVSS
(A) 0.1 to 0.5 od
